measurementTarget: D(2) dopamine receptor (Homo sapiens) (UniProt P14416)
Sequence (P14416 whole entry, looked up): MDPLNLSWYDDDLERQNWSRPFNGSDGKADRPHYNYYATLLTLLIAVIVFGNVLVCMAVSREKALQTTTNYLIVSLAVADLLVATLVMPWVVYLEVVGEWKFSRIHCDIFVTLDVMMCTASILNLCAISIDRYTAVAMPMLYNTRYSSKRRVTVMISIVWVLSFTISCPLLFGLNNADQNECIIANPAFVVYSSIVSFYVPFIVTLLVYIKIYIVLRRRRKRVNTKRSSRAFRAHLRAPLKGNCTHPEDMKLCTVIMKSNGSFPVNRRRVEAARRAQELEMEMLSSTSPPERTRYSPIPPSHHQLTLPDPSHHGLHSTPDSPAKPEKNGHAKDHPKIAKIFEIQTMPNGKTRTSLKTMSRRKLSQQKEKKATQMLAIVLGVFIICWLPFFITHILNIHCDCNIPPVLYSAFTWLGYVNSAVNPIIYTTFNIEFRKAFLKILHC
experimentalProtocol: Dopamine D2 receptor (DRD2) small molecule antagonists, cell-based qHTS assay (AID 1963595); also: % is scaled to controls: 0 for no effect and ±100 for the full control effect
testSettings: HEK293-DRD2 cAMP HTRF antagonist mode; series mostly up to 92.4 µM
Results filed as inconclusive are left out. Activity calls are given as the source filed them. Calls follow the shape of the dose curve; as a rule, active = well fitted inhibition curve with a large enough effect in the signal ratio in the repeat runs, with a control signal flat; inconclusive = weak or mixed curves, or effect the other way; inactive = flat fitted curve, though single readings scatter; the % refers to the signal ratio.
assayMetric: activity change, negative = inhibition

>>> measvalue("O=C(O)Cc1ccc2c(c1)C(=O)c1ccccc1CO2")
"inactive"
>>> measvalue("C[C@@H]1O[C@@H](O[C@@H]2[C@@H](O)[C@H](OCCc3ccc(O)c(O)c3)O[C@H](CO[C@@H]3O[C@H](CO)[C@@H](O)[C@H](O)[C@H]3O)[C@H]2OC(=O)/C=C/c2ccc(O)c(O)c2)[C@H](O)[C@H](O)[C@H]1O")
"inactive"
>>> measvalue("O=C1OCc2ccccc21")
"inactive"
>>> measvalue("Cc1ccccc1C(=O)O")
"inactive"
>>> measvalue("Nc1ncnc(Nc2ccccc2)n1")
"inactive"
>>> measvalue("CCCCCCCC/C=C/C(=O)O")
"inactive"
>>> measvalue("CC(=O)O[C@H]1C[C@@H]2CC[C@@H]3[C@H](CC[C@@]4(C)[C@H]3C[C@H]([N+]3(C)CCCCC3)[C@@H]4OC(C)=O)[C@@]2(C)C[C@@H]1N1CCCCC1")
"inactive"
>>> measvalue("CN1C(C)(C)CCCC1(C)C")
"inactive"
>>> measvalue("CCCC(=O)C(CC)Sc1ccoc1C (configuration not stated)")
"inactive"
>>> measvalue("O=C(O)Cn1c(C(=O)Nc2nc(-c3ccccc3Cl)cs2)cc2ccccc21")
"inactive"

# lookup: activity change, negative = inhibition of CN1Cc2cc(C(=O)N3CCC(C4CCNCC4)CC3)ccc2NC(CC(=O)O)C1=O (configuration not stated)
inactive

# lookup: activity change, negative = inhibition of C=C(C)c1ccccc1
inactive

# lookup: activity change, negative = inhibition of CCOC(=O)CC1(C)OCC(C)O1 (configuration not stated)
inactive

# lookup: activity change, negative = inhibition of COC(=O)c1cccc(Cl)c1
inactive

# lookup: activity change, negative = inhibition of CCCCCCCCCCCCS(=O)(=O)Cl
-2.33% [at 18.9 µM] (inactive)

# lookup: activity change, negative = inhibition of CCO[Si](OCC)(OCC)OCC
inactive

# lookup: activity change, negative = inhibition of CC(C(=O)O)c1ccc(CC2CCCC2=O)cc1 (configuration not stated)
inactive

# lookup: activity change, negative = inhibition of CC(CO)(CO)C(=O)O
inactive

# lookup: activity change, negative = inhibition of CCCCc1nc(Cl)c(CO)n1Cc1ccc(-c2ccccc2-c2nn[nH]n2)cc1
inactive

# lookup: activity change, negative = inhibition of c1ccc(CNc2ncnc3nc[nH]c23)cc1
inactive

# lookup: activity change, negative = inhibition of CCOC(=O)[C@H](CCc1ccccc1)N[C@H]1CS[C@H](c2cccs2)CN(CC(=O)O)C1=O
inactive

# lookup: activity change, negative = inhibition of Cc1occc1C(=O)Nc1ccc(C(=O)N2CCC(F)(F)/C(=C\C(=O)N3CCC(N4CCCCC4)CC3)c3ccccc32)cc1
inactive

# lookup: activity change, negative = inhibition of CC(C)=CCC[C@@](C)(O)[C@H]1CC=C(C)CC1
inactive

# lookup: activity change, negative = inhibition of CC(C=O)Cc1ccc(C(C)C)cc1 (configuration not stated)
inactive

# lookup: activity change, negative = inhibition of CC(=O)Oc1ccc(C(C)=O)cc1
inactive

# lookup: activity change, negative = inhibition of CC(=O)c1cnccn1
inactive

# lookup: activity change, negative = inhibition of O=C(O)CCCCCCC(=O)O
inactive
